Tested on: disorders of the cardiac rhythm provoked by aconitine
Test: animal or person
Conditions: Rattus norvegicus, iv, read-out: ED50 (dose required to restore the rhythm in 50%), Wistar rats, i.v., aconitine-induced arrhythmia
Structures can show the parent of a compound that is named as a salt.
Measured ED50, listed per entry.
Reply with just the number (in mg/kg).

Problem: Find the measured ED50: item CN1CC2CCC(N(C)C)C(C1)C2OC(=O)c1cccc(Cl)c1 (centres unmarked) [compound 1645, dihydrochloride monohydrate] , target or system disorders of the cardiac rhythm provoked by aconitine.
Result: 1.2

Problem: Find the measured ED50: item CN1CC2CCC(N(C)C)C(C1)C2OC(c1ccccc1)c1ccccc1 (centres unmarked) , target or system disorders of the cardiac rhythm provoked by aconitine.
Result: 0.4

Problem: Param readout= ED50; system= disorders of the cardiac rhythm provoked by aconitine; entry= CN1CC2CCC(N(C)C)C(C1)C2OC(=O)c1cccc(C(F)(F)F)c1 (centres unmarked) [compound 1648, dihydrochloride] ; returns value.
Result: 1

Problem: Recall the recorded ED50 for CN1CC2CCC(N(C)C)C(C1)C2OC(=O)c1ccc(F)cc1 (centres unmarked) [compound 1641, dihydrochloride monohydrate] with disorders of the cardiac rhythm provoked by aconitine and state it.
Result: 0.55

Problem: Hello, I am looking for reported ED50 with disorders of the cardiac rhythm provoked by aconitine for CN1CC2CCC(N(C)C)C(C1)C2OC(=O)c1cccc(F)c1 (centres unmarked) [compound 1642, dihydrochloride] . Could you help?
Result: 0.5

---
Problem: Return ED50 measured with disorders of the cardiac rhythm provoked by aconitine given this compound: COc1cc(C(=O)OC2C3CCC(N(C)C)C2CN(C)C3)cc(OC)c1OC (centres unmarked)
Result: 0.15

Problem: Identify the measured ED50 of CN1CC2CCC(N(C)C)C(C1)C2OC(=O)c1ccc(Cl)c(Cl)c1 (centres unmarked) [compound 1643, dihydrochloride] for disorders of the cardiac rhythm provoked by aconitine.
Result: 1.2

Problem: What measured ED50 is associated with CN1CC2CCC(N(C)C)C(C1)C2OC(=O)c1cccs1 (centres unmarked) on disorders of the cardiac rhythm provoked by aconitine?
Result: 0.45

###

Test system: disorders of the cardiac rhythm provoked by aconitine
Test: animal or person
Details: relative to Lidocaine = 1
Let's look at some compounds and their measured index ratio (index of the test compound : index of Lidocaine).
Quick one: just the number, no unit, thanks!

Example cases with answers are listed next.
Problem: Identify the measured index ratio (index of the test compound : index of Lidocaine) of COc1cc(C(=O)OC2C3CCC(N(C)C)C2CN(C)C3)cc(OC)c1OC (stereo not shown) for disorders of the cardiac rhythm provoked by aconitine.
Result: 71.8

Problem: Reported index ratio (index of the test compound : index of Lidocaine) for disorders of the cardiac rhythm provoked by aconitine, given CN1CC2CCC(N(C)C)C(C1)C2OC(=O)C1c2ccccc2Oc2ccccc21 (stereo not shown) ?
Result: 15.7

Problem: Provide value of index ratio (index of the test compound : index of Lidocaine) for this record tested with disorders of the cardiac rhythm provoked by aconitine: CN1CC2CCC(N(C)C)C(C1)C2OC(=O)c1ccccc1 (stereo not shown)
Result: 15.5

# ---- query compound ----
Problem: What index ratio (index of the test compound : index of Lidocaine) appears in the records for this compound with disorders of the cardiac rhythm provoked by aconitine? CN1CC2CCC(N(C)C)C(C1)C2Oc1cccc(C(F)(F)F)c1 (stereo not shown)
Result: 78.5

###

Listed below: LD50/ED50 index values for each entry.
Test system: disorders of the cardiac rhythm provoked by aconitine
Assay: animal or person
Conditions: LD50 mice i.v. / ED50 rats i.v.
The answer should be a number; do not append a unit.

Problem: Consider the compound shown here: CN1CC2CCC(N(C)C)C(C1)C2Oc1cccc(C(F)(F)F)c1 (stereo not shown) What is its recorded LD50/ED50 index?
Result: 256.0

Problem: Bench note: what LD50/ED50 index did CN1CC2CCC(N(C)C)C(C1)C2OC(=O)c1ccccc1 (stereo not shown) show?
Result: 50.5

Problem: What measured LD50/ED50 index goes with CN1CC2CCC(N(C)C)C(C1)C2OC(=O)C1c2ccccc2Oc2ccccc21 (stereo not shown) ?
Result: 51.1

Next:
Problem: Which value of LD50/ED50 index has been reported for COc1cc(C(=O)OC2C3CCC(N(C)C)C2CN(C)C3)cc(OC)c1OC (stereo not shown) in the records?
Result: 234.0

###

Test system: disorders of the cardiac rhythm provoked by aconitine
Assay: animal or person
Settings: Rattus norvegicus, iv, read-out: ED50 (dose required to restore the rhythm in 50%), Wistar rats, i.v., aconitine-induced arrhythmia
Counter-ions that a name gives are not always drawn.
PROPERTY_NAME: log10 ED50 (log10 of the value in mg/kg)
Please interpret these as log10 of ED50 where ED50 is in mg/kg.

Problem: Using the record for CN1CC2CCC(N(C)C)C(C1)C2Oc1ccc(Cl)c(Cl)c1 (stereo not drawn) , report its log10 ED50.
Result: 0.60

Problem: For the compound shown here, CN1CC2CCC(N(C)C)C(C1)C2Oc1ccc(Cl)cc1 (stereo not drawn) , give the reported log10 ED50.
Result: 0.04

Continuing:
Problem: Given the compound CN1CC2CCC(N(C)C)C(C1)C2OC(=O)c1ccc(-c2ccccc2)cc1 (stereo not drawn) , what is its reported log10 ED50?
Result: 0.26

Problem: Tell me the measured log10 ED50 of CN1CC2CCC(N(C)C)C(C1)C2Oc1cccc(Cl)c1 (stereo not drawn) [compound 1535, monohydrochloride] , please.
Result: 0.40

###

Tested on: disorders of the cardiac rhythm provoked by aconitine
Assay: animal or person
Settings: Rattus norvegicus, iv, read-out: ED50 (dose required to restore the rhythm in 50%), Wistar rats, i.v., aconitine-induced arrhythmia
Counter-ions that a name gives are not always drawn.
PROPERTY_NAME: ED50
Answers without a unit are incomplete; give the number and then its unit.

Some solved entries appear below for comparison.
Problem: Field: ED50 (disorders of the cardiac rhythm provoked by aconitine). Entry: CN1CC2CCC(N(C)C)C(C1)C2OC(=O)c1ccccc1Cl (centres unmarked) [compound 1644, dihydrochloride monohydrate]
Result: 1.4 mg/kg

Problem: // lookup ED50 | system=disorders of the cardiac rhythm provoked by aconitine | key= CN1CC2CCC(N(C)C)C(C1)C2Oc1ccccc1 (centres unmarked) [compound 1533]
Result: 1.4 mg/kg

Problem: Lookup: ED50 / disorders of the cardiac rhythm provoked by aconitine / CN1CC2CCC(N(C)C)C(C1)C2OC(=O)C1c2ccccc2Oc2ccccc21 (centres unmarked) [compound 1531, dihydrochloride]
Result: 1 mg/kg

Problem: disorders of the cardiac rhythm provoked by aconitine / ED50 / CCN(CC)CC(=O)Nc1c(C)cccc1C [Lidocaine, reference compound] : value?
Result: 7.7 mg/kg

Problem: For disorders of the cardiac rhythm provoked by aconitine, provide ED50 of CN1CC2CCC(N(C)C)C(C1)C2OC(=O)c1ccc2ccccc2c1 (centres unmarked) [compound 1801] please.
Result: 0.7 mg/kg

---
Problem: What value of ED50 on disorders of the cardiac rhythm provoked by aconitine does Cc1ccc(OC2C3CCC(N(C)C)C2CN(C)C3)cc1 (centres unmarked) [compound 1548] have?
Result: 2.5 mg/kg

Problem: Reported ED50 for disorders of the cardiac rhythm provoked by aconitine, given CN1CC2CCC(N(C)C)C(C1)C2Oc1ccccc1Cl (centres unmarked) [compound 1536, dihydrochloride] ?
Result: 1.8 mg/kg

Problem: What ED50 appears in the records for this compound with disorders of the cardiac rhythm provoked by aconitine? Cc1ccc(C(=O)OC2C3CCC(N(C)C)C2CN(C)C3)cc1 (centres unmarked) [compound 1799, dihydrochloride]
Result: 1.1 mg/kg
